Taken from patent US20220298235A1.

Parameter EC50: see the listing below.
- Test target: T1, human IL-23 (IL-23-His-Biotin) (human, UniProt Q9NPF7 20-189; P29460 23-328, biotin label, site not stated)
- T1 construct: Akesobio lot 20161209; His-tagged and biotinylated
- T1 sequence (looked up) 1: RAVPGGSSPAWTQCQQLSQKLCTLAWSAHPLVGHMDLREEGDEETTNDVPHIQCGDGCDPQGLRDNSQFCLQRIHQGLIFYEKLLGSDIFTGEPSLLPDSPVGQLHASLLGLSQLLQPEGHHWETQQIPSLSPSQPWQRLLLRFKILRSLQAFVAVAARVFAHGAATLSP
- T1 sequence (looked up) 2: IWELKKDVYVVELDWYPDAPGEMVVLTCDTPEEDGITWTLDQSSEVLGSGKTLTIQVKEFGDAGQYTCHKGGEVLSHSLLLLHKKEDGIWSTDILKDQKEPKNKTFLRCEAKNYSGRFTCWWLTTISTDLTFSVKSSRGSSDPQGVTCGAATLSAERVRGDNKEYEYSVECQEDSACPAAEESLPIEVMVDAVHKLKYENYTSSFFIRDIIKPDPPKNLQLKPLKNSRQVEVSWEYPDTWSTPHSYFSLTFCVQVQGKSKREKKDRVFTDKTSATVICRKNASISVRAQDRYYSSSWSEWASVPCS
- Assay overview: FACS competition, IL-23-His-Biotin 2 µg/mL on 293T-IL-12Rβ1&IL-23R cells
# value in µg/mL; strip the unit string

H5L11 (antibody, human IgG1, kappa, V domains shown, human IgG1 / kappa constant regions; also called humanized antibody H5L11) VH: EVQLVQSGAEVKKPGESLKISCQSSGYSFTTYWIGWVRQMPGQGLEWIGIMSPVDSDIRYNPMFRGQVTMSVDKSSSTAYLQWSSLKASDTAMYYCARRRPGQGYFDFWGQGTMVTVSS VL: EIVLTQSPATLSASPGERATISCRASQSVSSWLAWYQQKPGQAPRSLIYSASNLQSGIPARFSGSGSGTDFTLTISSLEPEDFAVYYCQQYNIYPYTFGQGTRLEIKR | 0.864

// next entry
Data request: Give the measured EC50 of H5L9 (antibody, human IgG1, kappa, V domains shown, human IgG1 (P01857) / kappa (P01834) constant regions; also called humanized antibody H5L9) VH: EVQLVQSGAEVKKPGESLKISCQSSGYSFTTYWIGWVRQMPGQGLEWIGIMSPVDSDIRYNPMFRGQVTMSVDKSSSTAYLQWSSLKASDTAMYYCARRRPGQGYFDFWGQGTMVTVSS VL: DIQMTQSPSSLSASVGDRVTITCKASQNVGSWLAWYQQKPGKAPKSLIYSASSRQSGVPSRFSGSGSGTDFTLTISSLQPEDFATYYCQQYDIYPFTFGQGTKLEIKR .
Data returned: 4.25
